tested_on: recombinant human FLAP protein (Homo sapiens, UniProt P20292)
Sequence (P20292 whole entry): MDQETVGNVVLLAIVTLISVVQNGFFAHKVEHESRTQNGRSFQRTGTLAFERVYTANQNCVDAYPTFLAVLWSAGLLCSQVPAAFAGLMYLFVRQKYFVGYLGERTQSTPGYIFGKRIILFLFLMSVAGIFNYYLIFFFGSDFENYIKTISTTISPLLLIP
test_name: FLAP binding assay (Scintillation Proximity Assay, displacement of [125I]L-691,831)
assay_conditions: recombinant human FLAP membranes, [125I]L-691,831 probe; read-out: FLAP SPA IC50
endpoint_label: pIC50
Scale explanation: pIC50 corresponds to minus log10 of a concentration expressed in moles per litre.

stdin: So what does the record say about pIC50 for `Cc1ncc(-c2nc(C3(c4ccc(-c5cnc(N)nc5)cc4)CCC3)no2)cn1` ?
stdout: 8.22

stdin: Try `Nc1ncc(-c2ccc(C3(c4noc(-c5cnc(N6CCC[C@H]6CO)cn5)n4)CCC3)cc2)cn1` next.
stdout: 8.52

stdin: Try `Nc1ncc(-c2ccc(C3(c4noc(NCCO)n4)CCC3)cc2)cn1` next.
stdout: 7.15

stdin: Try `Cc1ccc(-c2nc(C3(c4ccc(-c5cnc(N)nc5)cc4)CCC3)no2)cc1Cl` next.
stdout: 8.21

stdin: Try `Nc1ncc(-c2ccc(C3(c4noc(-c5cccc(F)c5)n4)CCC3)cc2)cn1` next.
stdout: 8.37

stdin: Try `CN(C)CCN(C)c1cnc(-c2nc(C3(c4ccc(-c5cnc(N)nc5)cc4)CCC3)no2)cn1` next.
stdout: 8.28

stdin: Try `CNc1ncc(-c2ccc(C3(c4noc(-c5cnn(CC(=O)N(C)C)c5)n4)CCC3)cc2)cn1` next.
stdout: 8.15

stdin: Try `CC(C)(O)CNc1cnc(-c2nc(C3(c4ccc(-c5cnc(N)nc5)cc4)CCC3)no2)cn1` next.
stdout: 8.04

stdin: Try `COCCNc1ccc(-c2nc(C3(c4ccc(-c5cnc(N)nc5)cc4)CCC3)no2)cn1` next.
stdout: 8.96

stdin: Try `Nc1ncc(-c2ccc(C3(c4noc(-c5ccc6[nH]ncc6c5)n4)CCC3)cc2)cn1` next.
stdout: 8.92

stdin: Try `CCOC(=O)CCN1CCN(c2ccc(-c3nc(C4(c5ccc(-c6cnc(N)nc6)cc5)CCC4)no3)cn2)CC1` next.
stdout: 8.57

stdin: Try `Nc1ncc(-c2ccc(C3(c4noc(Cn5ccnc5)n4)CCC3)cc2)cn1` next.
stdout: 6.59

stdin: Try `Cc1cc(-c2nc(C3(c4ccc(-c5cnc(N)nc5)cc4)CCOCC3)no2)n(C)n1` next.
stdout: 7.34

stdin: Try `Nc1ncc(-c2ccc(C3(c4noc(N5CCCC5=O)n4)CCC3)cc2)cn1` next.
stdout: 6.80

stdin: Try `Cn1cnc(-c2nc(C3(c4ccc(-c5cnc(N)nc5)cc4)CCC3)no2)c1` next.
stdout: 8.38

stdin: Try `Cn1cccc(-c2nc(C3(c4ccc(-c5cnc(N)nc5)cc4)CCC3)no2)c1=O` next.
stdout: 8.34

stdin: Try Nc1ncc(-c2ccc(C3(c4noc(-c5cnn(CC(=O)N6CCC(O)C6)c5)n4)CCC3)cc2)cn1 (centres unmarked) next.
stdout: 8.21

====

tested_on: recombinant human FLAP protein (Homo sapiens, UniProt P20292)
test_name: FLAP binding assay (Scintillation Proximity Assay, displacement of [125I]L-691,831)
assay_conditions: recombinant human FLAP membranes, [125I]L-691,831 probe; read-out: FLAP SPA IC50
endpoint_label: IC50 (nM)
Report as a plain number; the unit nM is understood.

stdin: So what does the record say about IC50 for CC(O)CNc1cnc(-c2nc(C3(c4ccc(-c5cnc(N)nc5)cc4)CCC3)no2)cn1 (centres unmarked) [Example 200] ?
stdout: 1.5

stdin: Try COC(=O)[C@H]1CN(c2cnc(-c3nc(C4(c5ccc(-c6cnc(N)nc6)cc5)CCC4)no3)cn2)CCN1 [Example 125] next.
stdout: 5

stdin: Try Cn1cc(-c2nc(C3(c4ccc(-c5ccc(N)c(C#N)c5)cc4)CCC3)no2)cn1 [Example 260] next.
stdout: 76

stdin: Try Nc1ncc(-c2ccc(C3(c4noc(-c5ccnc(Cl)c5)n4)CCC3)cc2)cn1 [Example 56] next.
stdout: 8.4

stdin: Try Nc1ccc(-c2nc(C3(c4ccc(-c5cnc(N)nc5)cc4)CCC3)no2)cn1 [Example 20] next.
stdout: 1.9

stdin: Try COCCNc1ccc(-c2nc(C3(c4ccc(-c5cnc(N)nc5)cc4)CCC3)no2)nn1 [Example 111] next.
stdout: 1.2

stdin: Try CN(C)C(=O)c1nc(C2(c3ccc(-c4cnc(N)nc4)cc3)CCC2)no1 [Example 14] next.
stdout: 57

stdin: Try Cc1cccc(-c2nc(C3(c4ccc(-c5cnc(N)nc5)cc4)CCC3)no2)c1 [Example 34] next.
stdout: 7.7
